Assay read-out IC50 on UniProt P24666; records merged from the literature.

Can you look up the measured IC50 of Cc1ccccc1Nc1ncn(Cc2c(Cl)cccc2Cl)c2ncnc1-2 for me?
1000 to 20000 nM

Can you share its IC50? I mean this compound: CCN(CC)C(=O)c1nc2ccc(-c3cc(NCCCN4CCCCC4)c4cnccc4n3)cc2s1
1000 to 20000 nM

Could you share which IC50 value was measured for Cc1ccccc1-c1nc2c(N)ncn(Cc3scnc3C)c-2n1 ?
< 1000 nM

Find the recorded IC50 belonging to Nc1ncn(Cc2c(Cl)cccc2Cl)c2nc(-c3cncs3)nc1-2 and report it.
≤ 1000 nM

Entry CCN(CC)C(=O)c1ccc(-c2cc(NCCN3CCS(=O)(=O)CC3)c3cnccc3n2)cc1 : reported IC50 = ?
1000 to 20000 nM

What does the data say about its IC50? Entry: CN1CCC(NC(=O)c2cc3cc(-c4cc(N(C)CCCN5CCCCC5)c5cnccc5n4)ccc3n2C)CC1
1000 to 20000 nM

# lookup: IC50 of Cn1ncc(Br)c1Cn1cnc(N)c2nc(-c3ccccc3)nc1-2
< 1000 nM

Consider the compound Cc1ccccc1-c1nc2c(N)ncn(Cc3sccc3Cl)c-2n1 and give its measured IC50.
< 1000 nM

What does the record list as IC50 for O=C(NCCc1ccncc1)c1cc2ccc(-c3cc(NCCCN4CCCCC4)c4cnccc4n3)cc2[nH]1 ?
≤ 1000 nM

IC50 for Cc1c(Cl)cccc1Nc1ncn(Cc2c(Cl)cccc2Cl)c2ncnc1-2 ?
1000 to 20000 nM

Form field: reported IC50 of CN1CCN(CCCNC(=O)c2cc3cc(-c4cc(NCCCN5CCCCC5)c5cnccc5n4)ccc3n2C)CC1
≤ 1000 nM

Suppose we examine the compound Nc1ncn(Cc2cscn2)c2ncnc1-2 ; what IC50 value has been reported?
≥ 20000 nM

Name the recorded IC50 for CN1CCC(NC(=O)c2cc3ccc(-c4cc(NCCCN5CCCCC5)c5cnccc5n4)cc3[nH]2)CC1 .
1000 to 20000 nM

# IC50 lookup, item Nc1ncn(Cc2c(Cl)cccc2Cl)c2nc(/C=C/c3ccccc3)nc1-2
≤ 1000 nM

Requested read-out: IC50. Entry: Nc1ncn(Cc2ccc(Cl)cc2)c2ncnc1-2
≥ 20000 nM

Which measured IC50 value corresponds to Nc1ncn(Cc2c(Cl)cncc2Cl)c2nc(Cc3ccc(F)cc3)nc1-2 ?
< 1000 nM

Query (compound): Nc1ncn(Cc2ccsc2)c2ncnc1-2 ; field requested: IC50
≥ 20000 nM

# query: IC50 of entry O=C(Nc1ncn(Cc2c(Cl)cccc2Cl)c2ncnc1-2)c1ccccn1
1000 to 20000 nM

# query: IC50 of entry COc1ccc(Cn2cnc(NCc3ccco3)c3ncnc2-3)cc1
≥ 20000 nM

What value of IC50 has been recorded for this entry: Nc1ncn(Cc2ccc(F)cc2F)c2ncnc1-2
1000 to 20000 nM

Give its IC50 value. Item: N#Cc1cccc(Cn2cnc(N)c3ncnc2-3)c1
1000 to 20000 nM

Look up IC50: Fc1ccc(Cn2cnc(NCc3ccco3)c3ncnc2-3)cc1
≥ 20000 nM

Query (compound): CN1CCC(NC(=O)c2cc3ccc(-c4cc(NCCCN5CCCCC5)c5cnccc5n4)cc3s2)CC1 ; field requested: IC50
≤ 1000 nM

Recorded IC50 for CCN(CC)C(=O)c1ccc(-c2cc(NC3CCOCC3)c3cnccc3n2)cc1 , please?
1000 to 20000 nM

Give its IC50 value. Item: COc1ccc(Cc2nc3c(N)ncn(Cc4c(Cl)cccc4Cl)c-3n2)cc1
≤ 1000 nM

Sample CCNc1cc(-c2ccc3[nH]c(C(=O)NCCCN4CCCCC4)nc3c2)nc2ccncc12 — what was its IC50?
1000 to 20000 nM

Given Nc1ncn(Cc2c(Cl)cccc2Cl)c2nc(Br)nc1-2 , state its recorded IC50.
1000 to 20000 nM

Requested field: IC50. Item: Fc1ccc(F)c(Cn2cnc(NCc3ccco3)c3ncnc2-3)c1F
≥ 20000 nM

Fill in: IC50 of Cc1ccccc1-c1nc2c(N)ncn(Cc3c(Br)cncc3Br)c-2n1 is ___
< 1000 nM

Please report the recorded IC50 for Cc1ccc(S(=O)(=O)Nc2ncn(Cc3c(Cl)cccc3Cl)c3ncnc2-3)cc1 .
≥ 20000 nM

So what's the measured IC50 for this one? Nc1ncn(Cc2ccc3ccccc3n2)c2ncnc1-2
1000 to 20000 nM

Which measured IC50 value corresponds to Cc1ccc(CNc2ncn(Cc3c(Cl)cccc3Cl)c3ncnc2-3)cc1 ?
1000 to 20000 nM

State the recorded IC50 for this entry: COc1cccc(OC)c1-c1nc2c(N)ncn(Cc3c(Cl)ncc(Cl)c3Cl)c-2n1
< 1000 nM

Entry Clc1ccccc1Nc1ncn(Cc2c(Cl)cccc2Cl)c2ncnc1-2 : reported IC50 = ?
≤ 1000 nM

Reported IC50, compound Fc1cccc(Cl)c1Cn1cnc(NCc2ccco2)c2ncnc1-2 : ____
1000 to 20000 nM

Name the reported IC50 value associated with the compound Nc1cccc(Cl)c1Cn1cnc(N)c2ncnc1-2
1000 to 20000 nM

Dear colleague, I am looking for the recorded IC50 of the following compound: Cn1ccnc1Cn1cnc(N)c2ncnc1-2
≥ 20000 nM

Param item = Fc1ccc(Nc2ncn(Cc3c(Cl)cccc3Cl)c3ncnc2-3)cc1 ; retrieve measured IC50.
1000 to 20000 nM

Please give the measured IC50 for this compound: Nc1ncn(Cc2c(Cl)ccnc2Cl)c2nc(-c3ccccc3)nc1-2
< 1000 nM

I would be grateful if you could share the reported IC50 for CN1CCC(Nc2cc(-c3ccc4c(c3)cc(C(=O)NCCCN3CCCCC3)n4C)nc3ccncc23)CC1 .
1000 to 20000 nM

For the compound shown here, Cc1ccc(-c2nc3c(N)ncn(Cc4c(Cl)cccc4Cl)c-3n2)s1 , give the reported IC50.
≤ 1000 nM

Requested read-out: IC50. Entry: Clc1cccc(Cl)c1Cn1cnc(NCCN2CCCCC2)c2ncnc1-2
≥ 20000 nM

Given CCN(CC)C(=O)c1ccc(-c2cc(NCCN3CCCCC3)c3cnccc3n2)cc1 , state its recorded IC50.
1000 to 20000 nM

###

Below, pIC50 values reported for human LMPTP-A (Homo sapiens, UniProt P24666) across several publications.
pIC50: −log10 of the molar value.

human LMPTP-A (Homo sapiens, UniProt P24666) / pIC50 / Cc1ccccc1-c1nc2c(N)nc(C)n(Cc3c(Br)cncc3Br)c-2n1 : value?
4.70 to 6.00

API: value(readout=pIC50, system=human LMPTP-A (Homo sapiens, UniProt P24666)) for record CN1CCC(NC(=O)c2cc3cc(-c4cc(NCc5ccc(CN6CCCCC6)cc5)c5cnccc5n4)ccc3n2C)CC1
≥ 6.00

Value wanted: pIC50 (human LMPTP-A (Homo sapiens, UniProt P24666)) of entry Nc1ncn(Cc2nc3ccccc3s2)c2ncnc1-2
4.70 to 6.00

Give pIC50 (human LMPTP-A (Homo sapiens, UniProt P24666)) of the following compound: Nc1ncn(Cc2c(Cl)cccc2Cl)c2nc(-c3ccc4scnc4c3)nc1-2
≥ 6.00

Field: pIC50 (human LMPTP-A (Homo sapiens, UniProt P24666)). Entry: CCN1CCC(CNC(=O)CCOc2ccc(-c3cc(N(CC)CCCN4CCCCC4)c4cnccc4n3)cc2)CC1
≤ 4.70

Request - read-out pIC50 | tested on human LMPTP-A (Homo sapiens, UniProt P24666) | compound Nc1ncn(Cc2ccc(Cl)cc2Cl)c2ncnc1-2
4.70 to 6.00

Report pIC50 for Cc1cccc(-c2nc3c(N)ncn(Cc4c(Cl)cccc4Cl)c-3n2)c1 tested on human LMPTP-A (Homo sapiens, UniProt P24666).
Sequence (P24666 whole entry): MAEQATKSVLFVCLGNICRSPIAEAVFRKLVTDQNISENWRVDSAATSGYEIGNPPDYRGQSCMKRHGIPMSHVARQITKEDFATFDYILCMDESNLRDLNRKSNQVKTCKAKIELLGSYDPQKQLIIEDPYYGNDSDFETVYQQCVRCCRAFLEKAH
≥ 6.00

Enter reported pIC50 observed with human LMPTP-A (Homo sapiens, UniProt P24666) for COc1ccccc1-c1nc2c(N)ncn(Cc3c(Cl)cccc3Cl)c-2n1
≥ 6.00

Request body: readout pIC50, system human LMPTP-A (Homo sapiens, UniProt P24666), query FC(F)(F)Oc1cccc(Nc2ncn(Cc3c(Cl)cccc3Cl)c3ncnc2-3)c1 . Return the value.
4.70 to 6.00

Which pIC50 is reported with human LMPTP-A (Homo sapiens, UniProt P24666) for this entry: NC(=O)c1cccc(Cl)c1Cn1cnc(N)c2ncnc1-2 ?
≥ 6.00

For human LMPTP-A (Homo sapiens, UniProt P24666), provide pIC50 of Cn1c(C(=O)NC2CCNCC2)cc2cc(-c3cc(NCc4ccc(CN5CCCCC5)cc4)c4cnccc4n3)ccc21 please.
≥ 6.00

Form entry - test system: human LMPTP-A (Homo sapiens, UniProt P24666); read-out: pIC50; compound: CCN(CC)C(=O)c1ccc(-c2cc(NCCN3CCN(C)CC3)c3cnccc3n2)cc1
4.70 to 6.00

Please tell me: pIC50 of CCN(CC)C(=O)c1ccc(-c2cc(NCCN3CCN(S(C)(=O)=O)CC3)c3cnccc3n2)cc1 , system human LMPTP-A (Homo sapiens, UniProt P24666)?
4.70 to 6.00

Please state recorded pIC50 (tested on human LMPTP-A (Homo sapiens, UniProt P24666)) of CCNc1ncn(Cc2c(Cl)cccc2Cl)c2ncnc1-2
4.70 to 6.00

For the record CCN1CCC(CNC(=O)/C=C/c2ccc(-c3cc(NCCCN4CCCCC4)c4cnccc4n3)cc2)CC1 , what value of pIC50 is listed for human LMPTP-A (Homo sapiens, UniProt P24666)?
4.70 to 6.00

Tell me reported pIC50 for O=C(NCCCN1CCCCC1)c1cc2ccc(-c3cc(NCCCN4CCCCC4)c4cnccc4n3)cc2[nH]1 , tested with human LMPTP-A (Homo sapiens, UniProt P24666).
4.70 to 6.00

Query for human LMPTP-A (Homo sapiens, UniProt P24666): what pIC50 does the record show for Clc1cccc(Nc2ncn(Cc3c(Cl)cccc3Cl)c3ncnc2-3)c1Cl ?
4.70 to 6.00

Form entry - test system: human LMPTP-A (Homo sapiens, UniProt P24666); read-out: pIC50; compound: Nc1ncn(Cc2c(Cl)ccnc2Cl)c2nc(-c3ccc4c(c3)CCCC4)nc1-2
> 6.00

Missing value: pIC50, human LMPTP-A (Homo sapiens, UniProt P24666), entry COc1ccc(CNc2ncn(Cc3c(Cl)cccc3Cl)c3ncnc2-3)c(OC)c1 . Fill in?
4.70 to 6.00

Notebook: pull reported pIC50 for human LMPTP-A (Homo sapiens, UniProt P24666), entry O=C(Nc1ncn(Cc2c(Cl)cccc2Cl)c2ncnc1-2)c1ccco1
4.70 to 6.00

Reported pIC50 for human LMPTP-A (Homo sapiens, UniProt P24666), given Cc1ccccc1Cn1cnc(NCc2ccco2)c2ncnc1-2 ?
≤ 4.70

Record lookup: for human LMPTP-A (Homo sapiens, UniProt P24666), what pIC50 belongs to Nc1ncn(Cc2c(Cl)cccc2Cl)c2nc(-c3ccncc3)nc1-2 ?
≥ 6.00

Under human LMPTP-A (Homo sapiens, UniProt P24666): pIC50 value of Nc1ncn(Cc2c(Cl)cccc2Cl)c2nc(Cc3ccc(F)cc3)nc1-2 ?
≥ 6.00

Hello, I am looking for reported pIC50 with human LMPTP-A (Homo sapiens, UniProt P24666) for CN1CCCN(CCNC(=O)/C=C/c2ccc(-c3cc(NCCCN4CCCCC4)c4cnccc4n3)cc2)CC1 . Could you help?
≥ 6.00

Which measured pIC50 belongs to CCN1CCN(C(=O)c2nc3cc(-c4cc(NCCCN5CCCCC5)c5cnccc5n4)ccc3[nH]2)CC1 , tested on human LMPTP-A (Homo sapiens, UniProt P24666)?
≥ 6.00

Lab note: need pIC50 with human LMPTP-A (Homo sapiens, UniProt P24666) for entry Nc1ncn(Cc2ccccc2F)c2ncnc1-2 , please look it up.
4.70 to 6.00

Form entry - test system: human LMPTP-A (Homo sapiens, UniProt P24666); read-out: pIC50; compound: Nc1ncn(Cc2c(Cl)cncc2Cl)c2nc(-c3ccc4[nH]cnc4c3)nc1-2
> 6.00

Which measured pIC50 belongs to Cc1cncc2c(NCCCN3CCCCC3)cc(-c3ccc(C(=O)NC4CCN(C)CC4)cc3)nc12 , tested on human LMPTP-A (Homo sapiens, UniProt P24666)?
≤ 4.70

Any idea what pIC50 came out for Clc1cccc(Cl)c1Cn1cnc(NCc2ccncc2)c2ncnc1-2 on human LMPTP-A (Homo sapiens, UniProt P24666)?
4.70 to 6.00

Form field - read-out: pIC50; system: human LMPTP-A (Homo sapiens, UniProt P24666); submitted item: Nc1ncn(Cc2c(Cl)cccc2Cl)c2nc(-c3cccnc3)nc1-2
≥ 6.00

Notebook entry, human LMPTP-A (Homo sapiens, UniProt P24666) assay: pIC50 of CC(=O)Nc1ncn(Cc2c(Cl)cccc2Cl)c2ncnc1-2 = ?
4.70 to 6.00

Any idea what pIC50 came out for CN1CCN(C(=O)c2cc3cc(-c4cc(NCc5ccc(CN6CCCCC6)cc5)c5cnccc5n4)ccc3n2C)CC1 on human LMPTP-A (Homo sapiens, UniProt P24666)?
≥ 6.00

Under human LMPTP-A (Homo sapiens, UniProt P24666): pIC50 value of Nc1ncn(Cc2c(Cl)ccnc2Cl)c2nc(-c3ccc4ncsc4c3)nc1-2 ?
> 6.00

So what pIC50 did CCN(CC)C(=O)c1ccc(-c2cc(Nc3ccc(CN(C)C)cc3)c3cnccc3n2)cc1 get with human LMPTP-A (Homo sapiens, UniProt P24666)?
4.70 to 6.00

Which measured pIC50 belongs to Nc1ncn(Cc2c(Cl)cccc2Cl)c2nc(-c3cnccc3Cl)nc1-2 , tested on human LMPTP-A (Homo sapiens, UniProt P24666)?
≥ 6.00

Give the reported pIC50 for Nc1ncn(Cc2c(Cl)cccc2Cl)c2nc(C3=CCOCC3)nc1-2 (system: human LMPTP-A (Homo sapiens, UniProt P24666)).
≥ 6.00

Given the entry COc1ccc(Nc2ncn(Cc3c(Cl)cccc3Cl)c3ncnc2-3)cc1 , what pIC50 was observed with human LMPTP-A (Homo sapiens, UniProt P24666)?
4.70 to 6.00

What value of pIC50 on human LMPTP-A (Homo sapiens, UniProt P24666) does Cc1noc(C)c1-c1nc2c(N)ncn(Cc3c(Cl)cccc3Cl)c-2n1 have?
≥ 6.00

Missing value: pIC50, human LMPTP-A (Homo sapiens, UniProt P24666), entry Nc1ncn(Cc2c(Cl)cccc2Cl)c2nc(C(c3ccccc3)c3ccccc3)nc1-2 . Fill in?
≥ 6.00

For the record Nc1ncn(Cc2c(Cl)cccc2Cl)c2nc(-c3cccc(Cl)c3)nc1-2 , what value of pIC50 is listed for human LMPTP-A (Homo sapiens, UniProt P24666)?
≥ 6.00

Write down the reported pIC50 of Nc1ncn(Cc2c(Cl)ncnc2Cl)c2nc(-c3ccccc3)nc1-2 , test system: human LMPTP-A (Homo sapiens, UniProt P24666).
> 6.00
